Target: CB1 receptor (human) (Homo sapiens)
Sequence (P21554 whole entry): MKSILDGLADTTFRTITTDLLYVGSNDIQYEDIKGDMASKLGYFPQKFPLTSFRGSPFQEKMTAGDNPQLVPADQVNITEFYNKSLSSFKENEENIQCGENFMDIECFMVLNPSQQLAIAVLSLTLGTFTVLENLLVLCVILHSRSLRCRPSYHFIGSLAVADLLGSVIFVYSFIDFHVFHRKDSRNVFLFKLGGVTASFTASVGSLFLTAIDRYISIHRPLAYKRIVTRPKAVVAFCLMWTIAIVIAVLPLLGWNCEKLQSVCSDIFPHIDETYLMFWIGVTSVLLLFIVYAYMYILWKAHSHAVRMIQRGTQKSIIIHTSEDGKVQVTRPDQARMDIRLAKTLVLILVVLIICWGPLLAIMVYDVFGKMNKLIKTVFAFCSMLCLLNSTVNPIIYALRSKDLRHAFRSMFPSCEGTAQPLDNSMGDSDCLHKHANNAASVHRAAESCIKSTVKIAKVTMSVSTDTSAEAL
Assay: cell-based
Please go through the items and note down their EC50.
# answer = value followed by unit

Would you please look over these solved cases?
>  <molecule>
COC(=O)N1C/C(=C\c2ccc(OC)cc2)c2c(c(C(=O)NN3CC4CCCC4C3)nn2-c2ccc(Cl)cc2Cl)C1 (stereo not shown)

>  <targetOfAssay>
CB1 receptor (human) (Homo sapiens)

>  <assayEndpoint>
EC50

>  <result>
1 nM

$$$$
>  <molecule>
CC(C)(C)OC(=O)N1C/C(=C\c2ccc(F)cc2)c2c(c(C(=O)NN3CCCCC3)nn2-c2ccc(Cl)cc2Cl)C1

>  <targetOfAssay>
CB1 receptor (human) (Homo sapiens)

>  <assayEndpoint>
EC50

>  <result>
20 nM

$$$$

Give me EC50 for each of these molecules, listed below.
1. COC(=O)N1C/C(=C\c2ccc(OC)cc2)c2c(c(C(=O)NC(C)c3ccccn3)nn2-c2ccc(Cl)cc2Cl)C1 (stereo not shown)
2. COC(=O)N1C/C(=C\c2ccc(F)cc2)c2c(c(C(=O)N[C@H](C)c3ccccc3)nn2-c2ccc(Cl)cc2)C1
3. Cc1ccc(S(=O)(=O)N2C/C(=C\c3ccc(F)cc3)c3c(c(C(=O)N[C@H](C)c4ccccc4)nn3-c3ccc(Cl)cc3Cl)C2)cc1
4. O=C(NN1CC2CCCC2C1)c1nn(-c2ccc(Cl)cc2Cl)c2c1CNC/C2=C\c1ccc(F)cc1 (stereo not shown)
5. Cc1ccc(S(=O)(=O)N2C/C(=C\c3ccc(F)cc3)c3c(c(C(=O)NC(C)c4ccccn4)nn3-c3ccc(Cl)cc3Cl)C2)cc1 (stereo not shown)

["2 nM", "1 nM", "80 nM", "8 nM", "20 nM"]

* * *

Biological target: CB1 receptor (human) (Homo sapiens)
Experiment: cell-based
assayEndpoint: pEC50
Answers are plain numbers, as −log10 of the molar value.

Would you please look over these solved cases?
>  <compound>
CC12CCC(C1)C(C)(C)C2NC(=O)c1nn(C2CCCCC2)c2c1CN(S(C)(=O)=O)CC2 (centres unmarked)

>  <pEC50>
6.14

$$$$
>  <compound>
CC(=O)N1C/C(=C\c2ccc(F)cc2)c2c(c(C(=O)NN3CC4CCCC4C3)nn2-c2ccc(Cl)cc2Cl)C1 (centres unmarked)

>  <pEC50>
8.52

$$$$
>  <compound>
CCOC(=O)CN1C/C(=C\c2ccc(OC)cc2)c2c(c(C(=O)N[C@H](C)c3ccccc3)nn2-c2ccc(Cl)cc2Cl)C1

>  <pEC50>
9.70

$$$$
>  <compound>
CC(NC(=O)c1nn(-c2ccc(Cl)cc2Cl)c2c1CN(C(=O)OCc1ccccc1)C/C2=C\c1ccc(F)cc1)c1ccccn1 (centres unmarked)

>  <pEC50>
7.05

$$$$
>  <compound>
COC(=O)N1C/C(=C\c2ccc(F)cc2)c2c(c(C(=O)N[C@H](C)C3CCCCC3)nn2-c2ccc(Cl)cc2Cl)C1

>  <pEC50>
8.00

$$$$
>  <compound>
CC(=O)N1C/C(=C\c2ccc(F)cc2)c2c(c(C(=O)NN3CCCCC3)nn2-c2ccc(Cl)cc2Cl)C1

>  <pEC50>
7.70

$$$$
>  <compound>
CC(=O)N1C/C(=C\c2ccc(F)cc2)c2c(c(C(=O)N[C@H](C)C3CCCCC3)nn2-c2ccc(Cl)cc2Cl)C1

>  <pEC50>
8.40

$$$$
>  <compound>
COC(=O)N1C/C(=C\c2ccc(F)cc2)c2c(c(C(=O)NN3CC4CCCC4C3)nn2-c2ccc(Cl)cc2Cl)C1 (centres unmarked)

>  <pEC50>
8.70

$$$$
>  <compound>
CC(=O)N1C/C(=C\c2ccc(F)cc2)c2c(c(C(=O)NC(C)c3ccccn3)nn2-c2ccc(Cl)cc2Cl)C1 (centres unmarked)

>  <pEC50>
8.40

$$$$
>  <compound>
COC(=O)N1C/C(=C\c2ccc(OC)cc2)c2c(c(C(=O)NN3CCCCC3)nn2-c2ccc(Cl)cc2Cl)C1

>  <pEC50>
8.70

$$$$

Give me pEC50 for each of these compounds, listed below.
1. CCNC(=O)N1C/C(=C\c2ccc(F)cc2)c2c(c(C(=O)N[C@H](C)c3ccccc3)nn2-c2ccc(Cl)cc2)C1
2. CC(=O)N1C/C(=C\c2ccc(F)cc2)c2c(c(C(=O)N[C@H](C)c3ccccc3)nn2-c2ccc(Cl)cc2)C1
3. COC(=O)N1C/C(=C\c2ccc(F)cc2)c2c(c(C(=O)NN3CCCCC3)nn2-c2ccc(Cl)cc2Cl)C1
4. C[C@@H](NC(=O)c1nn(-c2ccc(Cl)cc2)c2c1CN(C(=O)OC(C)(C)C)C/C2=C\c1ccc(F)cc1)c1ccccc1

[8.30, 8.52, 7.40, 7.70]
